Reference for the values: ChEMBL document CHEMBL4304839

assay-target: Peroxisome proliferator-activated receptor gamma (Homo sapiens)
protocol-description: Agonist activity at PPARgamma in human MKN45 cells assessed as induction of cell aggregation incubated for 5 days by Hoechst 33342 staining based IN cell analyzer method relative to (E)-3-(1-(8-((4-methyl-2-propyl-1H-benzo[d]imidazol-1-yl)methyl)dibenzo[b,e]oxepin-11(6H)-ylidene)ethyl)-1,2,4-oxadiazol-5(4H)-one
recorded-endpoint: Emax (%)
Just the number please, in %, no unit attached.

Observe how each entry below is paired with its result.
smiles-str	endpoint-value
C/C(=C1/c2ccc(Cn3c(C4CC4)nc4cscc43)cc2COc2cc(F)ccc21)c1noc(=O)[nH]1	105
CCCc1nc2ccccc2n1Cc1ccc2c(c1)COc1c(F)cccc1/C2=C(\C)c1noc(=O)[nH]1	101
C/C(=C1/c2ccc(Cc3c(C4CC4)nc4cc(F)ccn34)cc2COc2cc(F)ccc21)c1noc(=O)[nH]1	112

Recorded Emax for C/C(=C1/c2ccc(Cc3c(C4CC4)nc4c5c(ccn34)OCC5)cc2COc2cc(F)ccc21)c1noc(=O)[nH]1 , please?
110

// repeat for C/C(=C1/c2ccc(Cc3c(C4CC4)nc4ccc(Cl)cn34)cc2COc2cc(F)ccc21)c1noc(=O)[nH]1 and report
102

Cool, now C/C(=C1/c2ccc(Cc3c(C4CC4)nc4c(Cl)cccn34)cc2COc2cc(F)ccc21)c1noc(=O)[nH]1
103

###

protocol-description: AUC in BALB/c mouse at 10 mg/kg, po by LC-MS/MS analysis
Assay type: ADME, organism-based
protocol-conditions: in vivo
Mark 1 only when AUC stays strictly below 2000 ng·h/mL. Values equal to the cut-off are 0.

The following compounds have reported results that may help.
smiles-str	assigned-class
C/C(=C1/c2ccc(Cc3c(C4CC4)nc4ccccn34)cc2COc2cc(F)ccc21)c1noc(=O)[nH]1	0
C/C(=C1/c2ccc(Cc3c(C4CC4)nc4c(Cl)cccn34)cc2COc2cc(F)ccc21)c1noc(=O)[nH]1	0
C/C(=C1/c2ccc(Cc3c(C4CC4)nc4ccc(Cl)cn34)cc2COc2cc(F)ccc21)c1noc(=O)[nH]1	1
C/C(=C1/c2ccc(Cc3c(C4CC4)nc4c5c(ccn34)OCC5)cc2COc2cc(F)ccc21)c1noc(=O)[nH]1	0
C/C(=C1/c2ccc(Cc3c(C4CC4)nc4cc(F)ccn34)cc2COc2cc(F)ccc21)c1noc(=O)[nH]1	0

Would you kindly look at the next entry?
Quick check: does C/C(=C1/c2ccc(Cn3c(C4CC4)nc4cscc43)cc2COc2cc(F)ccc21)c1noc(=O)[nH]1 have AUC under 2000 ng·h/mL?
1

###

protocol-description: AUC in BALB/c mouse at 10 mg/kg, po by LC-MS/MS analysis
Assay type: ADME, organism-based
protocol-conditions: in vivo
recorded-endpoint: AUC (ng·h/mL)
The reply should contain only the number, in ng·h/mL.

Here's what some known entries look like.
smiles-str	recorded-endpoint	endpoint-unit	endpoint-value
COCc1nc2cc(Cl)ccn2c1Cc1ccc2c(c1)COc1cc(F)ccc1/C2=C(\C)c1noc(=O)[nH]1	AUC	ng·h/mL	2450
C/C(=C1/c2ccc(Cc3c(C4CC4)nc4cc(Cl)ccn34)cc2COc2cc(F)ccc21)c1noc(=O)[nH]1	AUC	ng·h/mL	10200
COCc1nc2c(Cl)cccn2c1Cc1ccc2c(c1)COc1cc(F)ccc1/C2=C(\C)c1noc(=O)[nH]1	AUC	ng·h/mL	1090

Now take the following compound into account.
Field request: AUC | item: CCCc1nc2ccccc2n1Cc1ccc2c(c1)COc1cc(F)ccc1/C2=C(\C)c1noc(=O)[nH]1
1480
